target.or.test.system: RecBCD (prokaryote (species  in the …, UniProt P08394;P07648;P04993 1-1180;1-1122;1-608))
Sequence (P08394 whole entry, chain 1 of 3): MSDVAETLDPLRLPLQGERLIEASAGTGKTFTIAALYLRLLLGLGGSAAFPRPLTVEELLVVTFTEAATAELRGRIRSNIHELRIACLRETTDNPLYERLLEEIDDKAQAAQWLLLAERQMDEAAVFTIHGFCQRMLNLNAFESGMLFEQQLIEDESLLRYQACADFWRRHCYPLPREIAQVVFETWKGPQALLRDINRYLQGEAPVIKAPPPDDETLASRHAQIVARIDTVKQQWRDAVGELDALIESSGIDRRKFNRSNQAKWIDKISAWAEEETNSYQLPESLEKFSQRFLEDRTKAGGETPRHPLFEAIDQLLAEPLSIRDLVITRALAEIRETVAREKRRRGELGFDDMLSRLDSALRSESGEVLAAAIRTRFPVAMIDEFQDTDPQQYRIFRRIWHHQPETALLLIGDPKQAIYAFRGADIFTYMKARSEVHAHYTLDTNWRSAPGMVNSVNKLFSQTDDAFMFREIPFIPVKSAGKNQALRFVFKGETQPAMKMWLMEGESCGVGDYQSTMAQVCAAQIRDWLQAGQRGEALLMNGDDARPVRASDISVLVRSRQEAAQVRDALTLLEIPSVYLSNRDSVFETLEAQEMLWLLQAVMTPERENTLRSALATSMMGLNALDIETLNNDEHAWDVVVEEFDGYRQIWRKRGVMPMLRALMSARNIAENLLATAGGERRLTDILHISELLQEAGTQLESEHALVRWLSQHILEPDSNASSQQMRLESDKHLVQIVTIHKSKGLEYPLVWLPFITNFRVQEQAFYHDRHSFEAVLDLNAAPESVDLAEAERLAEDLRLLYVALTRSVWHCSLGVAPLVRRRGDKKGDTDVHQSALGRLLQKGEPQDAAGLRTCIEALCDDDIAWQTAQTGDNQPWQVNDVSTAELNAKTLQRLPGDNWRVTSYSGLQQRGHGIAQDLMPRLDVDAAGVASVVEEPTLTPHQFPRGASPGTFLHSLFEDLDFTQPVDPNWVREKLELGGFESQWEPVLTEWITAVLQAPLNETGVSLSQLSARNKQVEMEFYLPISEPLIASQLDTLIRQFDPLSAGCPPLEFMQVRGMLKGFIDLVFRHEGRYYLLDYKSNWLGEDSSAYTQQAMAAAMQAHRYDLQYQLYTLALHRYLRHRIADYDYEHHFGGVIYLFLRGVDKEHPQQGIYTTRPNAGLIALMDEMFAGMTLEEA
Sequence (P07648 whole entry, chain 2 of 3): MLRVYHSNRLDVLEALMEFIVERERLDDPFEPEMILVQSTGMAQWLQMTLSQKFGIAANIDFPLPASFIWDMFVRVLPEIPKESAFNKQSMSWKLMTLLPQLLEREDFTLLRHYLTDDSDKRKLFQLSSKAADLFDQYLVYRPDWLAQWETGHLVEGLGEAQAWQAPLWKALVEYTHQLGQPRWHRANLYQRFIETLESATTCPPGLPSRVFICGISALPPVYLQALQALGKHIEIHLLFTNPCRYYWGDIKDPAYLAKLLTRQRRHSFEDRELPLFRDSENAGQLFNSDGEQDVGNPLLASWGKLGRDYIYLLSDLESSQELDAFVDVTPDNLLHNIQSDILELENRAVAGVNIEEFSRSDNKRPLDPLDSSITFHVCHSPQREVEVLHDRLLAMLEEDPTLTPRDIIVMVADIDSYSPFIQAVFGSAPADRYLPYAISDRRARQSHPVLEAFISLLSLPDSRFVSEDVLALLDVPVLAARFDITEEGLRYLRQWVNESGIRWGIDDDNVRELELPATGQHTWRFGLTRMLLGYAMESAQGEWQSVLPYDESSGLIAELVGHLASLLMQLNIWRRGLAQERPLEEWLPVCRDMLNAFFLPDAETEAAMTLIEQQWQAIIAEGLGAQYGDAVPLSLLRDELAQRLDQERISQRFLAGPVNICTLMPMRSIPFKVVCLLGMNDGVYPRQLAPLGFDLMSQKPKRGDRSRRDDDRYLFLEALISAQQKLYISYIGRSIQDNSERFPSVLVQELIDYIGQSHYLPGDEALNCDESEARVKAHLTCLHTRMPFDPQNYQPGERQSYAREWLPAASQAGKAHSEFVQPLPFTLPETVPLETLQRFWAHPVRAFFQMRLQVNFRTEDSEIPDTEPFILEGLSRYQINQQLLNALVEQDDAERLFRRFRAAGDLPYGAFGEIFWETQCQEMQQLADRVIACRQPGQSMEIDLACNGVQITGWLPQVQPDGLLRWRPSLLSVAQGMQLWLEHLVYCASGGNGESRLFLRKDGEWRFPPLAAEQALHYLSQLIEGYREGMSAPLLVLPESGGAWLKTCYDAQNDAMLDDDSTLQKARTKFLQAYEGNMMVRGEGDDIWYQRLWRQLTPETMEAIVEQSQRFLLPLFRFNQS
Sequence (P04993 whole entry, chain 3 of 3): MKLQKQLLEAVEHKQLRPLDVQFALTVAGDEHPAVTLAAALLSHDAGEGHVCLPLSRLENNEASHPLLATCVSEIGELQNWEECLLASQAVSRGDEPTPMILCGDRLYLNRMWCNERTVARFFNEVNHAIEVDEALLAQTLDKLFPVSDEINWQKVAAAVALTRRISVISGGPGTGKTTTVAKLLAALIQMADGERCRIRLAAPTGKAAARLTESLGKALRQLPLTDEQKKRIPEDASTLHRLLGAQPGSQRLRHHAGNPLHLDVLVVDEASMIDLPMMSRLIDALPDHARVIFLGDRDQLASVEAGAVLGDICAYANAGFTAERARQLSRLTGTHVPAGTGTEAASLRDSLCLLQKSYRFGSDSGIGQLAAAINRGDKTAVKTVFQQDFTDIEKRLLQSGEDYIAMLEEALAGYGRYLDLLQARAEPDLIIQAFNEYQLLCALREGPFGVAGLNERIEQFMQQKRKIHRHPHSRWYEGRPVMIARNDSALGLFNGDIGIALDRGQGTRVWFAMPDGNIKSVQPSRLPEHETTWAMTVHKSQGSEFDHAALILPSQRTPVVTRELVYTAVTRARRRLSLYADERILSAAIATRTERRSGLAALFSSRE
measurement.notes: fluorescence anisotropy
experimental.readout: Kd (nM)
Answers are plain numbers, in nM.

Data request: Please give measured Kd of the following entry: 3ohDNA-F (structured_DNA) DNA: CATGTGACTCGTTACCTGAGTTTTTACTCAGGTAACGAGTCACATGATATATATAT
Data returned: 166
